Numbers sourced from BigSolDB 2.1.

Measurement Context: in n-propanol, 303.2 K
Outcome Measure: solubility (mole fraction)
Just the number, please, no unit after it.

Value lookup for solubility (mole fraction); key = NC(CO)(CO)CO
0.0063

----------
Measurement Context: in water, 308.2 K
Outcome Measure: solubility (mole fraction)
Just the number, please, no unit after it.

Value lookup for solubility (mole fraction); key = NC(CO)(CO)CO
0.11

----------
Measurement Context: in n-propanol, 298.2 K
Outcome Measure: solubility (mole fraction)
Just the number, please, no unit after it.

Value lookup for solubility (mole fraction); key = NC(CO)(CO)CO
0.005

----------
Measurement Context: in water, 298.2 K
Outcome Measure: solubility (mole fraction)
Just the number, please, no unit after it.

Value lookup for solubility (mole fraction); key = NC(CO)(CO)CO
0.092
